pIC50: −log10 of the molar value.
Measured pIC50 on μ-opioid receptor (Cavia porcellus) follows.
Sequence (A0ACM8Q262 1-400): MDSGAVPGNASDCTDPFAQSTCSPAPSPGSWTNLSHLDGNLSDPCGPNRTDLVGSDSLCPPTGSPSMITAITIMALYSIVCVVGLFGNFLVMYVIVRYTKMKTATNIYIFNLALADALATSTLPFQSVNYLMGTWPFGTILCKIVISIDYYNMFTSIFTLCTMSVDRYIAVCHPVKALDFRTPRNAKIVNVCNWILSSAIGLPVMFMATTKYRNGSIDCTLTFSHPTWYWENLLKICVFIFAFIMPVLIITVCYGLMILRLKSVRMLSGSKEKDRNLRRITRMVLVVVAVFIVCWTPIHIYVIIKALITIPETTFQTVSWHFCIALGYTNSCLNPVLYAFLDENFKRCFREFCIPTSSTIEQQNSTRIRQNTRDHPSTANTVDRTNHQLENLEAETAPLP
READOUT_TYPE: pIC50

molecule="C=C1CC[C@@]2(O)[C@H]3Cc4ccc(O)c5c4[C@@]2(CC[N+]3([O-])CC2CC2)[C@H]1O5 (some centres unmarked) [Compound C0002]" readout_type=pIC50 relation_symbol=< result_value=4.00
molecule="O=C1CC[C@@]2(O)[C@H]3Cc4ccc(O)c5c4[C@@]2(CC[N+]3([O-])CC2CC2)[C@H]1O5 (some centres unmarked) [Compound C0001]" readout_type=pIC50 relation_symbol== result_value=6.25

---

TGT: human μ-receptor (Homo sapiens)
Sequence (P35372 whole entry): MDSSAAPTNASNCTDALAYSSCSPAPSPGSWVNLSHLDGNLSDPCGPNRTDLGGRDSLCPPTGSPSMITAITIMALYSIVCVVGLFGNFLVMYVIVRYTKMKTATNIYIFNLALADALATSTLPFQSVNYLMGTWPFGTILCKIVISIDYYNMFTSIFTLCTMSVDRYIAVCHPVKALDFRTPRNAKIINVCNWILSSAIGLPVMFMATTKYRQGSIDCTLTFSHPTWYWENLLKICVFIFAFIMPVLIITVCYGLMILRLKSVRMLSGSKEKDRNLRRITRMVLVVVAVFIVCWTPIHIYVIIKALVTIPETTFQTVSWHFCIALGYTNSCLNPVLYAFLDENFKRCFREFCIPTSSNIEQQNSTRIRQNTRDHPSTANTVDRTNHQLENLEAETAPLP
PROTOCOL_NOTES: human μ-receptor model (binding, Ki)
EXPERIMENTAL_SETUP: read-out: % Inhibition at 1 × 10^−5 M
READOUT_TYPE: inhibition at 10 µM

compound="C=C1CC[C@@]2(O)[C@H]3Cc4ccc(O)c5c4[C@@]2(CC[N+]3([O-])CC2CC2)[C@H]1O5 (stereo partly shown)" readout_type="inhibition at 10 µM" result_value=94%
compound="CC1C[C@@]2(O)[C@H]3Cc4ccc(O)c5c4[C@@]2(CC[N+]3([O-])CC2CC2)[C@@H](O5)C1=O (stereo partly shown)" readout_type="inhibition at 10 µM" result_value=67%
compound="[O-][N+]1(CC2CC2)CC[C@]23c4c5ccc(O)c4O[C@H]2[C@@H](CO)CC[C@@]3(O)[C@H]1C5 (stereo partly shown)" readout_type="inhibition at 10 µM" result_value=95%
compound="[O-][N+]1(CC2CC2)CC[C@]23c4c5ccc(O)c4O[C@H]2CCC[C@@]3(O)[C@H]1C5 (stereo partly shown)" readout_type="inhibition at 10 µM" result_value=101%
compound="[O-][N+]1(CC2CC2)CC[C@]23c4c5ccc(O)c4O[C@H]2[C@@H](Cn2ccnc2)CC[C@@]3(O)[C@H]1C5 (stereo partly shown)" readout_type="inhibition at 10 µM" result_value=89%
compound="O=C1CC[C@@]2(O)[C@H]3Cc4ccc(O)c5c4[C@@]2(CC[N+]3([O-])CC2CC2)[C@H]1O5 (stereo partly shown)" readout_type="inhibition at 10 µM" result_value=96%
compound="Oc1ccc2c3c1O[C@H]1[C@@H](O)CC[C@@]4(O)[C@@H](C2)[N+](O)(CC2CC2)CC[C@]314 (stereo partly shown)" readout_type="inhibition at 10 µM" result_value=100%
